# maps each entry to its IC50
# experimental-system: SUMO-activating enzyme (Homo sapiens, UniProt Q9UBT2)
# Sequence (Q9UBE0 whole entry): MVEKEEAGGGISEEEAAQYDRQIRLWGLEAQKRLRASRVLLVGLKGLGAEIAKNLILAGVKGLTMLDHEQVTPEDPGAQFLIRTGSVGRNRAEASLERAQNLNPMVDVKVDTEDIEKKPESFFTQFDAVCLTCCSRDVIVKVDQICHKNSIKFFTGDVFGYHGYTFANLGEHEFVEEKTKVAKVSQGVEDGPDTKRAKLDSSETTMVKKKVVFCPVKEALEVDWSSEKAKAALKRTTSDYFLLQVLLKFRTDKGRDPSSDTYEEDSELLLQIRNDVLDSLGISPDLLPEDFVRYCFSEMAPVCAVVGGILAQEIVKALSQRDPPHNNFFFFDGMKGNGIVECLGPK
# Sequence (Q9UBT2 whole entry): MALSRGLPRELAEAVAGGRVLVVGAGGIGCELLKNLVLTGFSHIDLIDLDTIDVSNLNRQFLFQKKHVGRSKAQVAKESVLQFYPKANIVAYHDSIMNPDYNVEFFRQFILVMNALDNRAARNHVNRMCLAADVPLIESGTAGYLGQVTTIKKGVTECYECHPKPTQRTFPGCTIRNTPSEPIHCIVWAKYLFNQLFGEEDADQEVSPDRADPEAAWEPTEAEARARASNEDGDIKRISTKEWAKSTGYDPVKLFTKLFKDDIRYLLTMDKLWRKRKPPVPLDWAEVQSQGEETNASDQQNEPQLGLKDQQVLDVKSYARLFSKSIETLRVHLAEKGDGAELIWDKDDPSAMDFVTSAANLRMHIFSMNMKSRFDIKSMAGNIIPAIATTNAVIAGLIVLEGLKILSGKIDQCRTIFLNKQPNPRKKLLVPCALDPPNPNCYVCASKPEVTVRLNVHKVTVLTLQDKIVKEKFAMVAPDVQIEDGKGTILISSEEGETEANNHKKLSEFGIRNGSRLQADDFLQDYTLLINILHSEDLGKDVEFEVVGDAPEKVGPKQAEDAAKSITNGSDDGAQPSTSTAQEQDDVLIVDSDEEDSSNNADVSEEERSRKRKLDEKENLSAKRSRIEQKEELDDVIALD
# procedure-summary: Inhibition of recombinant SAE (unknown origin) assessed as reduction in transfer of SUMO1 to UBC9 using SUMO1 as a substrate in presence of ATP at Km concentration by HTRF assay
# Type: protein-complex assay
Express the result in pM but write the number alone.

Some compounds with recorded IC50:
| compound | experimental-system | assay-endpoint | val |
| --- | --- | --- | --- |
| CC(O)(c1csc(C(=O)c2cncnc2N[C@@H]2C[C@H](COS(N)(=O)=O)[C@@H](O)[C@H]2O)c1)c1cccc(Br)n1 (some centres undefined) | SUMO-activating enzyme (Homo sapiens, UniProt Q9UBT2) | IC50 | 100 |
| NS(=O)(=O)OC[C@H]1C[C@@H](Nc2ncncc2C(=O)c2ccn(Cc3ccccc3)n2)[C@H](O)[C@@H]1O | SUMO-activating enzyme (Homo sapiens, UniProt Q9UBT2) | IC50 | 1000 |
| NS(=O)(=O)OC[C@H]1C[C@@H](Nc2ncncc2C(=O)c2cc([C@@H]3OCCc4ccccc43)cs2)C[C@@H]1O | SUMO-activating enzyme (Homo sapiens, UniProt Q9UBT2) | IC50 | 400 |

Now look at this one.
// query IC50 value for entry NS(=O)(=O)OC[C@H]1C[C@@H](Nc2ncncc2C(=O)c2csc(Cc3cccc(Br)c3)c2)C[C@@H]1O
18000

----------
# procedure-summary: Inhibition of recombinant UAE (unknown origin) in presence of ATP at Km concentration by HTRF assay
# Parameters: species or system Homo sapiens
assay-endpoint: IC50

Some solved cases for reference:
| compound | IC50 |
| --- | --- |
| NS(=O)(=O)OC[C@@H]1C[C@@H](Nc2ncncc2C(=O)c2ccn(Cc3ccccc3)n2)C[C@@H]1O | > 1 µM |
| NS(=O)(=O)OC[C@H]1C[C@@H](Nc2ncncc2C(=O)c2ccn(Cc3ccccc3)n2)[C@H](O)[C@@H]1O | 0.058 µM |
| Cc1sc(C(=O)c2cncnc2N[C@@H]2C[C@H](COS(N)(=O)=O)[C@@H](O)C2)cc1C1OCCc2ccccc21 (stereo partly drawn) | > 1 µM |
| NS(=O)(=O)OC[C@H]1C[C@@H](Nc2ncncc2C(=O)c2cc([C@@H]3OCCc4ccccc43)cs2)C[C@@H]1O | > 1 µM |
| NS(=O)(=O)OC[C@H]1C[C@@H](Nc2ncncc2C(=O)c2ccn(Cc3cccc(Cl)c3)n2)C[C@@H]1O | > 1 µM |

Suppose we examine the compound Cc1cccc(Cn2ccc(C(=O)c3cncnc3N[C@@H]3C[C@H](COS(N)(=O)=O)[C@@H](O)C3)n2)c1 ; what IC50 value has been reported?
> 1 µM

Requested read-out: IC50. Entry: NS(=O)(=O)OC[C@H]1C[C@@H](Nc2ncncc2C(=O)c2ccn(-c3ccccc3)n2)C[C@@H]1O
0.468 µM

Recorded IC50 for CN1CCc2ccc(Cl)cc2C1c1csc(C(=O)c2cncnc2N[C@@H]2C[C@H](COS(N)(=O)=O)[C@@H](O)C2)c1 (stereo partly drawn) , please?
> 1 µM

----------
# procedure-summary: Oral bioavailability in rat blood at 10 mg/kg
# Type: ADME, organism-based
assay-endpoint: bioavailability (%)
Your answer is read as %, so omit the unit and give the number.

For the compound shown here, Cc1sc(C(=O)c2cncnc2N[C@@H]2C[C@H](COS(N)(=O)=O)[C@@H](O)C2)cc1[C@@H]1NCCc2ccc(Cl)cc21 , give the reported bioavailability.
10

Could you share which bioavailability value was measured for NS(=O)(=O)OC[C@H]1C[C@@H](Nc2ncncc2C(=O)c2ccn(Cc3cccc(Br)c3)n2)C[C@@H]1O ?
6.9

Given Cc1sc(C(=O)c2cncnc2N[C@@H]2C[C@H](COS(N)(=O)=O)[C@@H](O)C2)cc1C1OCCc2ccc(Cl)cc21 (stereo in doubt) , state its recorded bioavailability.
19

----------
# procedure-summary: AUC in rat plasma at 1 mg/kg, iv
# Assay type: ADME, organism-based
# Set-up: dose 1 mg/kg
assay-endpoint: AUC (µM·h)
Give a bare numeral; the unit µM·h is implied.

Need AUC, item Cc1sc(C(=O)c2cncnc2N[C@@H]2C[C@H](COS(N)(=O)=O)[C@@H](O)C2)cc1C1OCCc2ccc(Cl)cc21 (stereo in doubt)
0.3

What measured AUC goes with Cc1sc(C(=O)c2cncnc2N[C@@H]2C[C@H](COS(N)(=O)=O)[C@@H](O)C2)cc1[C@@H]1NCCc2ccc(Cl)cc21 ?
0.5

What does the data say about its AUC? Entry: NS(=O)(=O)OC[C@H]1C[C@@H](Nc2ncncc2C(=O)c2ccn(Cc3cccc(Br)c3)n2)C[C@@H]1O
0.4

----------
# procedure-summary: Apparent permeability across basolateral to apical side in human Caco2 cells
# Format: ADME, cell-based
# conditions: Caco-2
assay-endpoint: Papp B→A (×10⁻⁶ cm/s)
Numbers only; they are read as ×10⁻⁶ cm/s.

The examples below pair each entry with its known result.
| molecule | measurement-unit | Papp B→A |
| --- | --- | --- |
| Cc1sc(C(=O)c2cncnc2N[C@@H]2C[C@H](COS(N)(=O)=O)[C@@H](O)C2)cc1[C@@H]1NCCc2ccc(Cl)cc21 | ×10⁻⁶ cm/s | 46 |
| NS(=O)(=O)OC[C@H]1C[C@@H](Nc2ncncc2C(=O)c2ccn(Cc3cccc(Br)c3)n2)C[C@@H]1O | ×10⁻⁶ cm/s | 64 |

Could you now consider this next molecule?
Sample Cc1sc(C(=O)c2cncnc2N[C@@H]2C[C@H](COS(N)(=O)=O)[C@@H](O)C2)cc1C1OCCc2ccc(Cl)cc21 (stereo in doubt) — what was its Papp B→A?
64

----------
IC50 values by entry
# procedure-summary: Inhibition of recombinant UAE (unknown origin) in presence of ATP at Km concentration by HTRF assay
# Parameters: species or system Homo sapiens

| compound | val |
| --- | --- |
| NS(=O)(=O)OC[C@H]1C[C@@H](Nc2ncncc2C(=O)c2ccn(Cc3ccccc3)c2)C[C@@H]1O | > 1000 nM |

Given NS(=O)(=O)OC[C@H]1C[C@@H](Nc2ncncc2C(=O)c2cc(C3OCc4ccc(Cl)cc43)c(Cl)s2)C[C@@H]1O (stereo partly specified) , state its recorded IC50.
> 1000 nM

Endpoint output: IC50 of Cc1sc(C(=O)c2cncnc2N[C@@H]2C[C@H](COS(N)(=O)=O)[C@@H](O)C2)cc1C1OCCc2cccnc21 (stereo partly specified) . Value?
> 1000 nM

Fill in: IC50 of CN(C)C(c1cccc(Cl)c1)c1csc(C(=O)c2cncnc2N[C@@H]2C[C@H](COS(N)(=O)=O)[C@@H](O)C2)c1 (stereo partly specified) is ___
> 1000 nM

Endpoint output: IC50 of NS(=O)(=O)OC[C@H]1C[C@@H](Nc2ncncc2C(=O)c2ccn(Cc3ccccc3)n2)[C@@H](F)[C@@H]1O . Value?
492 nM

Which IC50 value belongs to NS(=O)(=O)OC[C@H]1C[C@@H](Nc2ncncc2C(=O)c2ccn(Cc3cccc(Br)n3)n2)C[C@@H]1O ?
> 1000 nM

----------
# experimental-system: NEDD8 activating enzyme (Homo sapiens)
# Sequence (Q8TBC4 whole entry): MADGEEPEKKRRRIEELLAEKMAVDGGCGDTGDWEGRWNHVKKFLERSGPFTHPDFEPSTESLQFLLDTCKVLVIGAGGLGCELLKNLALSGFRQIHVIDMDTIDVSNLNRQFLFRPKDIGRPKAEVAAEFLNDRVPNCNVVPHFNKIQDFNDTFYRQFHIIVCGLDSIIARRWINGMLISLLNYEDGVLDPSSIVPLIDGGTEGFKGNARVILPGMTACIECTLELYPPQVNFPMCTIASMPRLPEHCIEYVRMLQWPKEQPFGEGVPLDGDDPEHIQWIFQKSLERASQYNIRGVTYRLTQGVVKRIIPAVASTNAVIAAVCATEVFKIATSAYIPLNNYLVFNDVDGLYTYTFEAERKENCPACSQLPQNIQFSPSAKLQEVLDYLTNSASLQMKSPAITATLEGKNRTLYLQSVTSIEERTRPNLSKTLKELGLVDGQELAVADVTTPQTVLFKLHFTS
# Sequence (Q13564 whole entry): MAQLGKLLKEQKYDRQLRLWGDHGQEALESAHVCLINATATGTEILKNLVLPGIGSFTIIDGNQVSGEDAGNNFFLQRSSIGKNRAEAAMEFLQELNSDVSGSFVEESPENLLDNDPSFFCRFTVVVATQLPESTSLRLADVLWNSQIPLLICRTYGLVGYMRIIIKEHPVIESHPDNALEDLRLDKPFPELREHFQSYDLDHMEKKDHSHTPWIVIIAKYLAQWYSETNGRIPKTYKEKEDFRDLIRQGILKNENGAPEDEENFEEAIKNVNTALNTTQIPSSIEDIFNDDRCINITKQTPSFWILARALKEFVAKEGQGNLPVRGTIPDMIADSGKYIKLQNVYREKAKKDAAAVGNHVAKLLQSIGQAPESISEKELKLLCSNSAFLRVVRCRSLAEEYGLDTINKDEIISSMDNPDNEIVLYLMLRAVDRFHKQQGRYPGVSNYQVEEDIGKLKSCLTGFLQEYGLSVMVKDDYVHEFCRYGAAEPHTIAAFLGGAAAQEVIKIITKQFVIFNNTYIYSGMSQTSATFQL
# procedure-summary: Inhibition of NAE in human HCT116 cells assessed as reduction in conjugation of Nedd8 […] by Western blot analysis
# Type: cell-based, HCT-116
assay-endpoint: pIC50
A value of pIC50 is the negative decimal logarithm of a concentration given in moles per litre.

# query: pIC50 of entry NS(=O)(=O)OC[C@H]1C[C@@H](Nc2ncncc2C(=O)c2ccn(Cc3ccccc3)n2)[C@H](O)[C@@H]1O
5.85
